These data points were gathered from patent US8334236B2.

- Test system: Setaria viridis
- assay remarks: Test Example 2: herbicidal effects in farmland soil treatment
- Assay type: in vivo
- Design: scale not given here
- condition context: 1000 g active ingredient per hectare, 21st day after treatment
observation type: Herbicidal effect index, Setaria viridis

molecule | endpoint value
Cc1cc(-n2c(=O)c(C(=O)C3=C(O)CCCC3=O)cc3cccnc32)no1 | 3
CCOCCn1c(=O)c(C(=O)C2=C(O)CCCC2=O)cc2cccnc21 | 5
O=C1CCCC(O)=C1C(=O)c1cnccn1 [Comparative compound A, reference compound] | 1
O=C1CCCC(O)=C1C(=O)c1cc2cccnc2n(-c2cccc(C(F)(F)F)c2)c1=O | 5
Cc1ccc(C)c(-n2c(=O)c(C(=O)C3=C(O)CCCC3=O)cc3cccnc32)c1 | 5
Cn1c(=O)c(C(=O)C2=C(O)CCCC2=O)cc2cccnc21 | 5
CC(C)c1ccc2cc(C(=O)C3=C(O)CCCC3=O)c(=O)n(-c3ccccc3)c2n1 | 5
Cc1ccccc1-n1c(=O)c(C(=O)C2=C(O)CCCC2=O)cc2cccnc21 | 5
CC1(C)CCC(=O)C(C(=O)c2cnc3ccccc3n2)=C1O [Comparative compound D, reference compound] | 0
